# Test system: ATP;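 further: ATP exposure 15 min at 22 °C before imaging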
# PROTOCOL: switch fluorescence ratio, 500 uM ATP over buffer (Cy3 cluster intensity, sum of 5 cycles each) (fold (ratio)); higher = stronger signal-on switching upon ATP binding; sequences stand for … in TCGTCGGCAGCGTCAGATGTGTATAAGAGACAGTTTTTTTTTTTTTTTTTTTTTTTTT…TC
# ASSAY CONDITIONS: aptamer strand: ATP DNA aptamer (quencher-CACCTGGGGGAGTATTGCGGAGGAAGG + anchor), 100 nM annealed; ATP concentration: 500 uM
Class Condition met: switch fluorescence ratio at least 1. Class Condition not met: switch fluorescence ratio below 1.

Below, 3 sequences whose answers are already recorded.
SEQUENCE TEXT | CLASSIFICATION
GGAAGGCGGG | Condition met
AAATAATTTA | Condition not met
CCTGGTGCAT | Condition met

Problem: Quick check: does TAAGGAGGTG have switch fluorescence ratio greater than or equal to 1?
Solution: Condition met
